Target: T1, human TNFR14 (human, UniProt Q92956 39-283)
T1 construct: whole, on cells
T1 sequence (looked up): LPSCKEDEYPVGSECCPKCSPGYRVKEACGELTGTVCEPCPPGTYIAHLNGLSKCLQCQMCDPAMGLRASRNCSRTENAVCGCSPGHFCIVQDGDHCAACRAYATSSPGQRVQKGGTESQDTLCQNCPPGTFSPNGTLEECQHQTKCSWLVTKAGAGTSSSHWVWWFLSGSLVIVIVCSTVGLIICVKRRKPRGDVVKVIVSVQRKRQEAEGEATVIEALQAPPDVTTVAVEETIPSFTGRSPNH
Assay: flow cytometry, HEK293 transfectants vs control cells
parameter: fold over control (gMFI) (fold)
Entry rule: numbers only, all in fold.

Past entries and their recorded results:
30A12 (antibody, IgG4, V domains shown, also called 4878-1) VH: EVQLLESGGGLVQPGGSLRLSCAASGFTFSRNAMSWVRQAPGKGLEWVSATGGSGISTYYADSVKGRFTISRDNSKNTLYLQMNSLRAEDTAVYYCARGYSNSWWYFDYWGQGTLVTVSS VL: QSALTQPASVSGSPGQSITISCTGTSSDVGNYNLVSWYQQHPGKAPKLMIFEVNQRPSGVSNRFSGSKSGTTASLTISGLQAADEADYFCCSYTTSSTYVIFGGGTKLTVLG yielded fold over control (gMFI) of 0.96

4G7 (antibody, IgG4, V domains shown, also called 4869-1) VH: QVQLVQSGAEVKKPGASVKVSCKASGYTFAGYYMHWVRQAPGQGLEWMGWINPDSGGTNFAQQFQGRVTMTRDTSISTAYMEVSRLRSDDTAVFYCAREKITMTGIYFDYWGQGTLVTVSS VL: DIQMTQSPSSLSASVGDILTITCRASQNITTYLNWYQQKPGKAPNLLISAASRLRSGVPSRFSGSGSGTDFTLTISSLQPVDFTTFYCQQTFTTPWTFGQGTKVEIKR yielded fold over control (gMFI) of 0.89

39C2 (antibody, IgG4, V domains shown, also called 4887-1) VH: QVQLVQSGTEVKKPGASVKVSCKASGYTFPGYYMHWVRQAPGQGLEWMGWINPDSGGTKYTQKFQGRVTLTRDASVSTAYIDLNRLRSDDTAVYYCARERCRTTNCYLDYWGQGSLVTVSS VL: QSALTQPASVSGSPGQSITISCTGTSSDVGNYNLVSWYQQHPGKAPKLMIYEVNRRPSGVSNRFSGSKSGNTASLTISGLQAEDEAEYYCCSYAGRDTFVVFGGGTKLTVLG yielded fold over control (gMFI) of 0.89

35F11 (antibody, IgG4, V domains shown, also called 4868-1) VH: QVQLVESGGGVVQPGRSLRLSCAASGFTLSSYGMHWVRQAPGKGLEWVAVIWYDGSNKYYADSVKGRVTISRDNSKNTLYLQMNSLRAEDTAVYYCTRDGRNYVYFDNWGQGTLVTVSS VL: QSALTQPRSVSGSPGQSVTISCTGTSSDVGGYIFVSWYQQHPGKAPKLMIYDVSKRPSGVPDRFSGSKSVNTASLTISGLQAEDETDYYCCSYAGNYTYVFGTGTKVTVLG yielded fold over control (gMFI) of 0.74

29H10 (antibody, V domains shown, also called 4877-1) VH: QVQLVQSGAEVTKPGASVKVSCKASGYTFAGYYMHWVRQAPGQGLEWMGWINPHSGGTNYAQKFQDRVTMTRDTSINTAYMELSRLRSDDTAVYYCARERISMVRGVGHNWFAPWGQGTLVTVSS VL: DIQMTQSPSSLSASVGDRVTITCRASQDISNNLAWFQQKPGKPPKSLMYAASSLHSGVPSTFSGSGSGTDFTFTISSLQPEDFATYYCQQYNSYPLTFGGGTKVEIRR yielded fold over control (gMFI) of 0.84

***
33H9 (antibody, IgG4, V domains shown, also called 4897-1) VH: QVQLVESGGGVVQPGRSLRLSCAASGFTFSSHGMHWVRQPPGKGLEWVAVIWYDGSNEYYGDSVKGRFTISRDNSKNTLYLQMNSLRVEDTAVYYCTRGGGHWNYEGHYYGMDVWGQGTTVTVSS VL: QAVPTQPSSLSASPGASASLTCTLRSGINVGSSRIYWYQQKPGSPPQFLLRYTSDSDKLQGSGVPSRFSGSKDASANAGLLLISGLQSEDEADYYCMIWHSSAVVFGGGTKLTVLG yielded fold over control (gMFI) of 0.88

Data provenance is patent US20260109776A1.
